Each entry below lists one item and its recorded pIC50 value.
- test system: Integrin alpha-IIb/beta-3 (Homo sapiens, UniProt P05106+P08514)
- Sequence (P05106 27-788 limits assumed): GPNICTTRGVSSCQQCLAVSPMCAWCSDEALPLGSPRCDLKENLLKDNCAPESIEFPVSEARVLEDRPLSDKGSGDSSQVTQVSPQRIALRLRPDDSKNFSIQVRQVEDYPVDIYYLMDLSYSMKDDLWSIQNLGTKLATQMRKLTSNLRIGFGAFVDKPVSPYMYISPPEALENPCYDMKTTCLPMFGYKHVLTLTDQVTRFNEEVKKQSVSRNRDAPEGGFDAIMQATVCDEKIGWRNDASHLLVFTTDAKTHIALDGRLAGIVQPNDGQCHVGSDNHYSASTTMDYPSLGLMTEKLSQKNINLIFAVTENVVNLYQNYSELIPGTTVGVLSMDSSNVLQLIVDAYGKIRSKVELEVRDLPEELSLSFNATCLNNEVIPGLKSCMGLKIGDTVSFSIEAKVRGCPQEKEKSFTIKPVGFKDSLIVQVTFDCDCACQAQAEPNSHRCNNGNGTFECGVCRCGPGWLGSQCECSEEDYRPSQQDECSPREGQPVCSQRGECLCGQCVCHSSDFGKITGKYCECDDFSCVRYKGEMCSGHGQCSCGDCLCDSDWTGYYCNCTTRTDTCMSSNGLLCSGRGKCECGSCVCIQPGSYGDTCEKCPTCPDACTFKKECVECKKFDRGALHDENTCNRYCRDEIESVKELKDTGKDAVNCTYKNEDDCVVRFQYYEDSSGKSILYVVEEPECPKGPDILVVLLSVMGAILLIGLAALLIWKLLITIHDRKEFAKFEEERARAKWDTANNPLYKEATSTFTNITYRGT
- Sequence (P08514 32-887 limits assumed): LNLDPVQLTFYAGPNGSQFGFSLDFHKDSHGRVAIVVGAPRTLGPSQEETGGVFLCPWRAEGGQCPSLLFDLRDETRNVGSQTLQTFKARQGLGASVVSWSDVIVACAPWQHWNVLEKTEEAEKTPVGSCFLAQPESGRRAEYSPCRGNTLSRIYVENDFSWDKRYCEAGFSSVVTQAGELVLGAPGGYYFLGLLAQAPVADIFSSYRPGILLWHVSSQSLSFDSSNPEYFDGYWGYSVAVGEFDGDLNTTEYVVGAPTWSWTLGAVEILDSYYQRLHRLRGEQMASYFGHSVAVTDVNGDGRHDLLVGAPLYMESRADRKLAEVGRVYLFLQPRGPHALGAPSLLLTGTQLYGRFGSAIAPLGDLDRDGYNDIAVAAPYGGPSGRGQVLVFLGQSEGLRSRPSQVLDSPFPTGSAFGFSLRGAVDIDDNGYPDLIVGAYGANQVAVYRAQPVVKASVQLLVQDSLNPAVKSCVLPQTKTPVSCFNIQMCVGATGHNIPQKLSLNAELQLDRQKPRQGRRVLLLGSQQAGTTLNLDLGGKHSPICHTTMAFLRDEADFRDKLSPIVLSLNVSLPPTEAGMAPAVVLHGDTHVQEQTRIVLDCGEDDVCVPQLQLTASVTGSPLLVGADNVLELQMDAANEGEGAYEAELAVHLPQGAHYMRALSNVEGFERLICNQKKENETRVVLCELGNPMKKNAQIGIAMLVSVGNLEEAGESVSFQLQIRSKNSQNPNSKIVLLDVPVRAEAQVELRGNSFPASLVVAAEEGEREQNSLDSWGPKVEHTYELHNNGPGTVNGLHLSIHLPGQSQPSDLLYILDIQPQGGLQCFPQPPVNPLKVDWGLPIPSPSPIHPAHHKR
- Sequence (P08514 891-1039 limits assumed): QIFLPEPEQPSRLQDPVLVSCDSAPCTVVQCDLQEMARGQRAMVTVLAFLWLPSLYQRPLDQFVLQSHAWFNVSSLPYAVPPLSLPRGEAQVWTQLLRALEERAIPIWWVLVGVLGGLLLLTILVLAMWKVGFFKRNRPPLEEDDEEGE
- experiment: Binding affinity against integrin alpha 2b-beta 3 in enzyme linked immunosorbent assay (ELISA)
Where a SMILES comes first, the peptide text is derived from it. Bridges are numbered along the chain shown (N, C = ends).
# log scale: pIC50 equals minus log10 of the concentration in mol/L

{"compound": "COc1ccc(C[C@@H]2NC(=O)[C@H](CC(=O)O)NC(=O)CNC(=O)[C@H](CCCNC(=N)N)NC(=O)[C@H](Cc3c[nH]cn3)NC(=O)CNC(=O)[C@@H](NC(=O)[C@@H](N)CCCNC(=N)N)C3(CCCCC3)SSC[C@@H](C(=O)N[C@@H](CCCNC(=N)N)C(=O)O)NC(=O)[C@H](CCCNC(=N)N)NC2=O)cc1", "test system": "Integrin alpha-IIb/beta-3 (Homo sapiens, UniProt P05106+P08514)", "endpoint name": "pIC50", "quantitative result": 7.70}

Next up:
IN: Request - read-out pIC50 | tested on Integrin alpha-IIb/beta-3 (Homo sapiens, UniProt P05106+P08514) | compound CC[C@H](C)[C@@H]1NC(=O)[C@@H](NC(C)=O)CSSC[C@@H](C(N)=O)NC(=O)[C@H](CCCN=C(N)N)NC(=O)[C@H](Cc2ccccc2)NC(=O)[C@H](CC(=O)O)NC(=O)CNC(=O)[C@H](CCCN=C(N)N)NC(=O)[C@@H]2CCCN2C1=O (Ac-CIPRGDFRC-NH2; disulfide 1-9)
OUT: 7.85
